# assayed_system: T1, 4H971-AA
# T1 chain: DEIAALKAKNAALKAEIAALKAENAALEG
# test_details: two-hybrid library CCmax;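 note: natural log of median RNA to DNA barcode read ratio; higher means stronger binding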
# test_settings: mean of both orientations
Measured interaction score values are reported for all entries that follow.
Enter a number only.

Below: 3 binders and their reported interaction score.
Data request, read-out interaction score, for DKNAALKAKIAALKAEIAALKAKNAALKG [4H3920-AA]
-1.64

Data request, read-out interaction score, for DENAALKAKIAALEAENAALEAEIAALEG [4H1809-AA]
0.362

Data request, read-out interaction score, for DKNAALKAKIAALKAKIAALEAENAALEG [4H3939-AA]
-1.81

More entries:
Data request, read-out interaction score, for DEIAALEAKNAALEAKIAALKAENAALKG [4H428-AA]
-0.222

Data request, read-out interaction score, for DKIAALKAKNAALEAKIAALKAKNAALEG [4H2991-AA]
-0.98
